Square brackets hold non-standard residues; d marks the D form. Peptide text beside a SMILES is read from it. pGlu = O=C1CC[C@@H](C(=O)O)N1; NMeS = CN[C@@H](CO)C(=O)O
measured-endpoint: Ki (nM)
Numbers only here, please. The scale is nM.

Record CC(C)C[C@H](NC(=O)[C@@H](Cc1ccc2ccccc2c1)NC(=O)[C@H](Cc1ccc(O)cc1)NC(=O)[C@H](CO)N(C)C(=O)[C@H](Cc1c[nH]c2ccccc12)NC(=O)[C@H](Cc1c[nH]cn1)NC(=O)[C@@H]1CCC(=O)N1)C(=O)N[C@@H](CCCN=C(N)N)C(=O)N1CCC[C@H]1C(=O)NCC(N)=O has UniProt P30969 Ki equal to 0.04

Record CCNC(=O)[C@@H]1CCCN1C(=O)[C@H](CCCN=C(N)N)NC(=O)[C@H](CC(C)C)NC(=O)[C@@H](CC(C)C)NC(=O)[C@H](Cc1ccc(O)cc1)NC(=O)[C@H](CO)N(C)C(=O)[C@H](Cc1c[nH]c2ccccc12)NC(=O)[C@H](Cc1c[nH]cn1)NC(=O)[C@@H]1CCC(=O)N1 [leuprolide 4NMeSer] ([pGlu]HW[NMeS]Y[dL]LRP-NHEt) has UniProt P30969 Ki equal to 1.41

// data source = BindingDB's records for doi:10.1021/jm00055a007
